Measurement target: HCV NS3/4A protease complex (Hepatitis C virus genotype 1a, UniProt P27958, C1454S/C1711G)
Construct: recombinant HCV NS3/4A protease complex (amino acids 1027 to 1711); inferred from the pET21b vector and Ni-NTA purification; made in house; host or cells: Escherichia coli BL21 (DE3)
Sequence (P27958 1027-1711 C1454S/C1711G, one chain of several): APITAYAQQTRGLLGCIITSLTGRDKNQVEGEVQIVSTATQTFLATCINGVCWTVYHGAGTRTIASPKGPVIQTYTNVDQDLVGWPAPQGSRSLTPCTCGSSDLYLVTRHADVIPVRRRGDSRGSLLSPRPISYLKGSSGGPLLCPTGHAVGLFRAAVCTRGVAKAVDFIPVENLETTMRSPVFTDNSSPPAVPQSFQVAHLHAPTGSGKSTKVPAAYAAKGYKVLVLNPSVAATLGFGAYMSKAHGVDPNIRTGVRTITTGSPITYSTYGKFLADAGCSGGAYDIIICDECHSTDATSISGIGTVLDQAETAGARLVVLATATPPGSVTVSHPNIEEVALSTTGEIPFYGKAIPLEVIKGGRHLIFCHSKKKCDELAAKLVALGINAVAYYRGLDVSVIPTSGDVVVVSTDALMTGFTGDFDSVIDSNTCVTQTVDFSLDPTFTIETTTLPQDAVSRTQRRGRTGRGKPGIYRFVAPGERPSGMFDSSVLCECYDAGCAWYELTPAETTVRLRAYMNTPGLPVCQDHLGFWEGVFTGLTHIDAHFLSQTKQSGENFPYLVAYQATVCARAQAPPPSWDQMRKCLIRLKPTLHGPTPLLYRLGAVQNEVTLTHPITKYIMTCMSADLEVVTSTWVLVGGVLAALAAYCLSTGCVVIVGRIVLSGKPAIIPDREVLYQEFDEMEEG
Protocol: FRET peptide assay to monitor HCV NS3/4A proteolytic activity
Assay type: biochemical
Particulars: HCV NS3/4A protease complex; strain not stated; class symbols; read-out: IC50
Property label: IC50

Query string: Returns the measured IC50 for the input compound. Input: COc1cc2ccc3cc2cc1CCCC(C)(C)CCOC(=O)N[C@@H](C(C)(C)C)C(=O)N1C[C@@]3(OC)C[C@H]1C(=O)N[C@]1(C(=O)NS(=O)(=O)C2CC2)C[C@H]1C1CC1
Result string: 1 to 10 nM

Query string: Subsequent entry: COc1cc2ccc3cc2cc1CCCC(C)(C)CCOC(=O)N[C@@H](C1CCOCC1)C(=O)N1C[C@@]3(OC)C[C@H]1C(=O)N[C@]1(C(=O)NS(=O)(=O)C2CC2)C[C@H]1C1CC1
Result string: 1 to 10 nM

Query string: Subsequent entry: COc1c2cc3cc(ccc3c1Br)[C@]1(OC)C[C@@H](C(=O)N[C@]3(C(=O)NS(=O)(=O)C4CC4)C[C@H]3C3CC3)N(C1)C(=O)[C@H](C(C)(C)C)NC(=O)OCCC(C)(C)CCC2
Result string: 11 to 12 nM

Query string: Subsequent entry: COc1ccc2ccc3cc2c1CCCCCOC(=O)N[C@@H](C(C)(C)C)C(=O)N1C[C@@]3(OC)C[C@H]1C(=O)N[C@]1(C(=O)NS(=O)(=O)C2CC2)C[C@H]1C1CC1
Result string: 21 to 3200 nM

Query string: Subsequent entry: C=C[C@@H]1C[C@]1(NC(=O)[C@@H]1C[C@]2(OC)CN1C(=O)[C@H](C(C)(C)C)NC(=O)OCCCCCCc1cc2cc2ccccc12)C(=O)NS(=O)(=O)C1CC1
Result string: 1 to 10 nM

Query string: Subsequent entry: C=C[C@@H]1C[C@]1(NC(=O)[C@@H]1C[C@]2(OC)CN1C(=O)[C@H](C(C)(C)C)NC(=O)OCCCCC=Cc1cc3cc2ccc3cc1OC)C(=O)NS(=O)(=O)C1CC1
Result string: 1 to 10 nM

Data origin: patent US20100080770A1
